Data origin, for the record: ChEMBL document CHEMBL3507680

- assay-remarks: Human HepG2 cell viability assay in 384 well format
- Type: toxicity, cell-based
- Parameters: dose 125 nL, time 70.5 hour; concentration not given beside the values
- experimental-context: HepG2 cells, read-out: Inhibition
quantity: cytotoxicity at 70.5 h

# molecule, reading
records = [
    ("COc1ccccc1CN(CC1CCCO1)C(=O)c1csnn1 (stereo unspecified)", "-12.2%"),
    ("CCN(Cc1cccs1)C(=O)c1ccc(=O)n(C)c1", "1.17%"),
    ("O=C(c1cc(C2CC2)on1)N1CCCC(n2cncn2)C1 (stereo unspecified)", "30.6%"),
    ("c1ccc(CN2CCC(Cc3noc(C4CC4)n3)CC2)cc1", "-5.84%"),
    ("COCc1ccccc1C(=O)NCCCN1CCCC1C(=O)N(C)C (stereo unspecified)", "7.28%"),
    ("CN(Cc1ccc(F)cc1)C(=O)c1ccoc1CN1CCNC(=O)C1", "-18.2%"),
]

----------
- assay-remarks: Human HepG2 cell viability assay in 384 well format
- Assay type: toxicity, cell-based
- Design: dose 125 nL, time 70.5 hour; concentration not given beside the values
- experimental-context: HepG2 cells, read-out: Inhibition

# compound, cytotoxicity at 70.5 h
records = [
    ("Cn1ccnc1SCCNC1CCN(c2ncccn2)CC1", "-1.29%"),
    ("O=C(NCc1ccccc1Cn1cncn1)C1CC1", "-11.8%"),
    ("c1ccc(OCCN2CCCCC2Cn2cncn2)cc1 (stereo unspecified)", "23.7%"),
    ("CC(C)(C)NC(=O)c1ccn(COc2c(Cl)cccc2Cl)n1", "-0.674%"),
    ("CCn1ncc(Cl)c1CN(C)C(=O)CCn1ncc(Br)c1C", "-18%"),
    ("O=C(Cc1ccsc1)N1CCCC(c2cc(C(F)F)n3ncnc3n2)C1 (stereo unspecified)", "14.6%"),
]

----------
We begin with a simple list: items and their reported cytotoxicity at 70.5 h.
- assay-remarks: Human HepG2 cell viability assay in 384 well format
- Type: toxicity, cell-based
- Design: dose 125 nL, time 70.5 hour; concentration not given beside the values
- experimental-context: HepG2 cells, read-out: Inhibition
quantity: cytotoxicity at 70.5 h (%)

# molecule, quantity, reading
data = [
    ("CN(Cc1ccccc1)CC1CC2(CO1)CN(c1nncs1)C2 (stereo not drawn)", "cytotoxicity at 70.5 h", -8.78),
    ("CCc1ccc(NC(=O)N2C[C@H]3C[C@H](C(=O)NC(C)C)[C@@H](C2)O3)cc1", "cytotoxicity at 70.5 h", -7.8),
    ("Cn1nc(COc2cccnc2)c2c1CCN(Cc1ccco1)C2", "cytotoxicity at 70.5 h", 4.18),
    ("OCCN1CCN(Cc2coc(-c3ccc(Cl)cc3)n2)CC1", "cytotoxicity at 70.5 h", -11.8),
    ("OCCN1CCC2(CC1)CC(NCc1ccccn1)c1ccccc1O2 (stereo not drawn)", "cytotoxicity at 70.5 h", -0.919),
    ("CC1CCN(S(=O)(=O)N2CCCC(c3cccc(C(=O)O)c3)C2)CC1 (stereo not drawn)", "cytotoxicity at 70.5 h", -12.1),
    ("O=C(NCC1(O)COCCN(Cc2ccc(O)cc2)C1)c1cnccn1 (stereo not drawn)", "cytotoxicity at 70.5 h", -9.12),
    ("c1ncn(CC2CCCN(Cc3csc(-c4ccsc4)n3)C2)n1 (stereo not drawn)", "cytotoxicity at 70.5 h", 2.18),
    ("CC(=O)c1cccc(NC(=O)Cn2cnc(-c3ccccc3)cc2=O)c1", "cytotoxicity at 70.5 h", -3),
    ("CCC[C@H]1CN(S(C)(=O)=O)C[C@@H]1NC(=O)CCOCC", "cytotoxicity at 70.5 h", -2.88),
    ("CC(C)COC(=O)N1CCCN(C(C)c2nc(C(C)C)no2)CC1 (stereo not drawn)", "cytotoxicity at 70.5 h", -3.98),
    ("CC(C)COC(C)C(=O)NCc1ccc(Cn2ccnc2)cc1 (stereo not drawn)", "cytotoxicity at 70.5 h", -8.31),
    ("CC1=Nc2c(c(=O)[nH]n2C(C)C)C(c2ccc3ncccc3c2)S1 (stereo not drawn)", "cytotoxicity at 70.5 h", 0.555),
    ("COc1ccc(-c2cn(CCn3c(C)cc(C)nc3=O)nn2)cn1", "cytotoxicity at 70.5 h", -9.73),
    ("CC(=O)N1CCCC(c2ccc(C(=O)NC3CCCC3)cn2)C1 (stereo not drawn)", "cytotoxicity at 70.5 h", -5.66),
    ("Cc1nc2cc(O)nn2c(C)c1CCC(=O)NCc1cc(Br)cs1", "cytotoxicity at 70.5 h", -13.2),
    ("Cc1ccc(C)n1-c1ccc(C(=O)NCCNc2ncccn2)cc1", "cytotoxicity at 70.5 h", -7.02),
    ("COc1ccc(C(=O)NC2CC2)c(OC2CCN(C3CCC3)CC2)c1", "cytotoxicity at 70.5 h", -3.47),
    ("CCc1[nH]ncc1C(=O)N1CCN(c2nccc(OC)n2)CC1", "cytotoxicity at 70.5 h", -3.61),
    ("CC(=O)N1C[C@@H]2CC[C@H](C1)N(S(=O)(=O)c1cc(F)ccc1C)C2", "cytotoxicity at 70.5 h", -10.6),
    ("CN1CCC(Nc2ccc(Cl)cc2OCC(F)(F)F)C1=O (stereo not drawn)", "cytotoxicity at 70.5 h", -3.11),
    ("CN(Cc1ccc(Cl)s1)C(=O)CN(C)C1CCc2ccccc21 (stereo not drawn)", "cytotoxicity at 70.5 h", -13.1),
    ("Cc1cnn(CC2CN(Cc3cccc(OC(C)C)c3)CCO2)c1 (stereo not drawn)", "cytotoxicity at 70.5 h", -5.62),
]
